Field: molar heat capacity at constant pressure. Provide a value for each of the compounds that follow.
assayComment: molar heat capacity at constant pressure
cond: 345.15 K; 101.33 kPa; Liquid; Small sample (50 mg) DSC
Answers are plain numbers, in J/K/mol.

- Brc1ccccc1Br [1,2-dibromobenzene]: 189.2

Parameters: items (list). Returns: molar heat capacity at constant pressure for each item.
1. Clc1ccc(Cl)cc1 [1,4-dichlorobenzene]
2. Clc1ccc(Cl)c(Cl)c1Cl [1,2,3,4-tetrachlorobenzene]
3. Clc1cccc(Cl)c1Cl [1,2,3-trichlorobenzene]

181.24
228.13
204.75

Parameters: items (list). Returns: molar heat capacity at constant pressure for each item.
1. Clc1ccccc1Br [1-bromo-2-chlorobenzene]
2. Clc1ccc(Cl)c(Cl)c1 [1,2,4-trichlorobenzene]
3. Clc1cccc(Br)c1 [1-bromo-3-chlorobenzene]
4. Clc1ccccc1Cl [1,2-dichlorobenzene]
5. Clc1ccccc1 [chlorobenzene]
6. Brc1cccc(Br)c1 [1,3-dibromobenzene]

1. 184.89
2. 203.85
3. 184.24
4. 181.47
5. 162.35
6. 188.3

Parameters: items (list). Returns: molar heat capacity at constant pressure for each item.
1. Brc1ccccc1 [bromobenzene]
2. Clc1cccc(Cl)c1 [1,3-dichlorobenzene]

1: 165.3; 2: 181.2
